Tested on: basophils
Test: Basophil Activation Test (BAT), CD63, anti-FcεR stimulated blood from healthy donors
Format: cell-based, human
Conditions: Homo sapiens; 2-hour drug exposure; blood from six healthy donors; read-out: average EC50, inhibition of anti-FcεR induced basophil activation (CD63+)
experimentalEndpoint: EC50 (µM)
Return type: number; implicit unit µM.

(Q) // fetch basophils EC50 for C=CC(=O)N1CCC(F)(CNc2ncnc(N)c2-c2ccc(Oc3ccccc3)cc2)CC1
(A) 0.5
